# targetOfAssay: KRAS WT (Homo sapiens (Human), UniProt P01116+P62937)
# Sequence (P01116-2 other isoform, or with tags, fused parts or gaps): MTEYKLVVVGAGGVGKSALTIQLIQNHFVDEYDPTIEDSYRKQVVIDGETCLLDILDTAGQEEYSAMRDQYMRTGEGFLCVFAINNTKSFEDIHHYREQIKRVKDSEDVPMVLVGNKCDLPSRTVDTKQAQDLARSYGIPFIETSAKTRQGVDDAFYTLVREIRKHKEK
# Sequence (P62937 whole entry): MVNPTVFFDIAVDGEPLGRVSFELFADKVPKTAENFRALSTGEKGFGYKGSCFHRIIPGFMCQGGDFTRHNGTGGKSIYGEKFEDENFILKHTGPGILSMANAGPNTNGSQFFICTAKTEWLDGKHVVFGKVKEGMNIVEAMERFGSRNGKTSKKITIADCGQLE
# methodSummary: Ras-Raf (BRAF RBD) disruption / FRET / MOA assay, KRAS WT
# Format: biochemical
# conditionInfo: read-out: IC50* KRAS WT FRET data
pIC50: −log10 of the molar value.
measuredQuantity: pIC50

[[record]]
compound = "CO[C@@H](C)c1ncccc1-c1c2c3cc(ccc3n1CC(F)(F)F)-c1nc(ns1)C[C@H](NC(=O)[C@@H](COC1CN(C(=O)C#CC(C)(C)N(C)C)C1)C(C)C)C(=O)N1CCC[C@H](N1)C(=O)OCC(C)(C)C2 (atropisomer, axis not shown) [Example A590]"
measuredquantity = "pIC50"
endpointresult = "5.00 to 6.00"

[[record]]
compound = "C=CC(=O)N1CC[C@H](C(=O)N(C)[C@H](C(=O)N[C@H]2Cc3cc(O)cc(c3)-c3ccc4c(c3)c(c(-c3ncn(C)c3[C@H](C)OC)n4CC)CC(C)(C)COC(=O)[C@@H]3CCCN(N3)C2=O)C(C)C)C1 [Example A301]"
measuredquantity = "pIC50"
endpointresult = "< 5.00"


---

# targetOfAssay: KRAS WT (Homo sapiens (Human), UniProt P01116+P62937)
# methodSummary: Ras-Raf (BRAF RBD) disruption / FRET / MOA assay, KRAS WT
# Assay type: biochemical
# conditionInfo: read-out: IC50* KRAS WT FRET data
# Protocol: The purpose of this biochemical assay is to measure the ability of test compounds to facilitate ternary complex formation between a nucleotide-loaded Ras isoform and cyclophilin A; the resulting ternary complex disrupts binding to a BRAF^RBD construct, inhibiting Ras signaling through a RAF effector. Compound is present in plate wells as a 10-point 3-fold dilution series starting at a final concentration of 30 μM. […]
# IC50 values compiled below
measuredQuantity: IC50

[[record]]
compound = "C=CC(=O)N1CC[C@]2(CCN([C@H](C(=O)N[C@H]3Cc4cccc(c4)-c4ccc5c(c4)c(c(-c4cccnc4[C@H](C)OC)n5CC)CC(C)(C)COC(=O)[C@@H]4CCCN(N4)C3=O)C(C)C)C2=O)C1 (atropisomer, axis not shown)"
targetofassay = "KRAS WT (Homo sapiens (Human), UniProt P01116+P62937)"
endpointresult = "1000 to 10000 nM"

[[record]]
compound = "CCn1c(-c2cccnc2[C@H](C)OC)c2c3cc(ccc31)N1CCO[C@@H](C[C@H](NC(=O)[C@@H](COC3CN(C(=O)C#CC(C)(C)N(C)C)C3)C(C)C)C(=O)N3CCC[C@H](N3)C(=O)OCC(C)(C)C2)C1 (atropisomer, axis not shown)"
targetofassay = "KRAS WT (Homo sapiens (Human), UniProt P01116+P62937)"
endpointresult = "> 10000 nM"

[[record]]
compound = "C=CC(=O)N(C)C[C@H]1CCN1C(=O)N(C)[C@H](C(=O)N[C@H]1Cc2nc(cs2)-c2ccc3c(c2)c(c(-c2cccnc2[C@H](C)OC)n3CC)CC(C)(C)COC(=O)[C@@H]2CCCN(N2)C1=O)C(C)C (atropisomer, axis not shown)"
targetofassay = "KRAS WT (Homo sapiens (Human), UniProt P01116+P62937)"
endpointresult = "100 to 1000 nM"

[[record]]
compound = "C=CC(=O)N1CC(N(C)C(=O)N(C)[C@H](C(=O)N[C@H]2Cc3nc(cs3)-c3ccc4c(c3)c(c(-c3cccnc3[C@H](C)OC)n4CC(F)(F)F)CC(C)(C)COC(=O)[C@@H]3CCCN(N3)C2=O)C(C)C)C1 (atropisomer, axis not shown)"
targetofassay = "KRAS WT (Homo sapiens (Human), UniProt P01116+P62937)"
endpointresult = "10 to 100 nM"

[[record]]
compound = "CCn1c(-c2cncnc2)c2c3cc(ccc31)-c1cccc(c1)C[C@H](NC(=O)[C@H](C(C)C)N(C)C(=O)[C@H]1CCN(C(=O)C#CCN3CCOCC3)C1)C(=O)N1CCC[C@H](N1)C(=O)OCC(C)(C)C2"
targetofassay = "KRAS WT (Homo sapiens (Human), UniProt P01116+P62937)"
endpointresult = "> 10000 nM"

[[record]]
compound = "CCn1c(-c2cccnc2[C@H](C)OC)c2c3cc(ccc31)-c1cccc(c1)C[C@H](NC(=O)[C@H](C(C)C)N(C)C(=O)[C@H]1CCN(C(=O)/C=C/CF)C1)C(=O)N1CCC[C@H](N1)C(=O)OCC(C)(C)C2"
targetofassay = "KRAS WT (Homo sapiens (Human), UniProt P01116+P62937)"
endpointresult = "1000 to 10000 nM"

[[record]]
compound = "C=CC(=O)N1CC[C@H](C(=O)N(C)[C@H](C(=O)N[C@H]2Cc3cccc(c3)-c3ccc4c(c3)c(c(-c3cccnc3[C@H](C)OC)n4CC)CC(C)(C)COC(=O)[C@@H]3CCCN(N3)C2=O)C(C)C(F)(F)F)C1 (some centres unmarked)"
targetofassay = "KRAS WT (Homo sapiens (Human), UniProt P01116+P62937)"
endpointresult = "1000 to 10000 nM"

[[record]]
compound = "C=CC(=O)N1CC[C@H](C(=O)N(C)[C@H](C(=O)N[C@H]2Cc3cccc(c3)-c3ccc4c(c3)c(c(-c3cnccc3[C@H](C)OC)n4CC)CC(C)(C)COC(=O)[C@@H]3CCCN(N3)C2=O)C(C)C)C1 [Example A122]"
targetofassay = "KRAS WT (Homo sapiens (Human), UniProt P01116+P62937)"
endpointresult = "> 10000 nM"


---

# targetOfAssay: KRAS G12D (Homo sapiens (Human), UniProt P01116+P62937, G12D)
# Sequence (P01116-2 other isoform, or with tags, fused parts or gaps G12D, one chain of several): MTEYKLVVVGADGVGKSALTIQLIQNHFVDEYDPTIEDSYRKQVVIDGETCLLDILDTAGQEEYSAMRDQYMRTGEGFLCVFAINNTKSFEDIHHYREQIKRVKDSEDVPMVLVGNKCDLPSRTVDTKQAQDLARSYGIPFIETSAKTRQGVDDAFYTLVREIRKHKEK
# methodSummary: Ras-Raf (BRAF RBD) disruption / FRET / MOA assay, KRAS G12D
# Assay type: biochemical
# conditionInfo: Ras-Raf disruption/FRET/MOA assay; class symbols; read-out: KRAS G12D FRET data IC50
measuredQuantity: IC50

[[record]]
compound = "C=CC(=O)N1CC[C@H](C(=O)N(C)[C@H](C(=O)N[C@H]2Cc3nc(cs3)-c3ccc4c(c3)c(c(-c3cccnc3[C@H](C)OC)n4CC)CC(C)(C)C/C=C/[C@@H]3CCCN(N3)C2=O)C(C)C)C1 (atropisomer, axis not shown) [Example A286]"
targetofassay = "KRAS G12D (Homo sapiens (Human), UniProt P01116+P62937, G12D)"
measuredquantity = "IC50"
endpointresult = "> 10 µM"

[[record]]
compound = "CCn1c(-c2cccnc2[C@H](C)OC)c2c3cc(ccc31)-c1csc(n1)C[C@H](NC(=O)CCOC1CN(C(=O)C#CC(C)(C)N(C)C)C1)C(=O)N1CCC[C@H](N1)C(=O)OCC(C)(C)C2 (atropisomer, axis not shown) [Example A427]"
targetofassay = "KRAS G12D (Homo sapiens (Human), UniProt P01116+P62937, G12D)"
measuredquantity = "IC50"
endpointresult = "> 10 µM"

[[record]]
compound = "CCn1c(-c2cccnc2[C@H](C)OC)c2c3cc(ccc31)-c1cc(F)cc(c1)C[C@H](NC(=O)[C@@H](COC1CN(C(=O)C#CC(C)(C)N(C)C)C1)C(C)C)C(=O)N1CCC[C@H](N1)C(=O)OCC(C)(C)C2 (atropisomer, axis not shown) [Example A403]"
targetofassay = "KRAS G12D (Homo sapiens (Human), UniProt P01116+P62937, G12D)"
measuredquantity = "IC50"
endpointresult = "> 10 µM"

[[record]]
compound = "C=CC(=O)N1CC[C@H](C(=O)N(C)[C@H](C(=O)N[C@H]2Cc3cc(OC(=O)CN)cc(c3)-c3ccc4c(c3)c(c(-c3ccccc3CCOC)n4CC)CC(C)(C)COC(=O)[C@@H]3CCCN(N3)C2=O)C(C)C)C1 [Example A008]"
targetofassay = "KRAS G12D (Homo sapiens (Human), UniProt P01116+P62937, G12D)"
measuredquantity = "IC50"
endpointresult = "> 10 µM"

[[record]]
compound = "CCn1c(-c2cccnc2[C@H](C)OC)c2c3cc(ccc31)-c1cccc(c1)C[C@H](NC(=O)[C@H](C(C)C)N1CC[C@]3(CCN(C(=O)C#C[C@@H]4COCCN4C)C3)C1=O)C(=O)N1CCC[C@H](N1)C(=O)OCC(C)(C)C2 (atropisomer, axis not shown) [Example A569]"
targetofassay = "KRAS G12D (Homo sapiens (Human), UniProt P01116+P62937, G12D)"
measuredquantity = "IC50"
endpointresult = "> 10 µM"

[[record]]
compound = "C=CC(=O)N1CCOC2(CCN(C(=O)N(C)[C@H](C(=O)N[C@H]3C[C@H]4CN(CCO4)c4ccc5c(c4)c(c(-c4cccnc4[C@H](C)OC)n5CC)CC(C)(C)COC(=O)[C@@H]4CCCN(N4)C3=O)C(C)C)CC2)C1 [Example A564]"
targetofassay = "KRAS G12D (Homo sapiens (Human), UniProt P01116+P62937, G12D)"
measuredquantity = "IC50"
endpointresult = "1 to 10 µM"

[[record]]
compound = "CCn1c(-c2cccnc2[C@H](C)OC)c2c3cc(ccc31)-c1cccc(n1)C[C@H](NC(=O)[C@H](C(C)C)N(C)C(=O)N1CCC13CN(C(=O)C#CC(C)(C)N(C)C)C3)C(=O)N1CCC[C@H](N1)C(=O)OCC(C)(C)C2 (atropisomer, axis not shown) [Example A623]"
targetofassay = "KRAS G12D (Homo sapiens (Human), UniProt P01116+P62937, G12D)"
measuredquantity = "IC50"
endpointresult = "1 to 10 µM"

[[record]]
compound = "C=CC(=O)N1CC[C@H](C(=O)N(C)[C@H](C(=O)N[C@H]2Cc3cc(O)cc(c3)-c3ccc4c(c3)c(c(-c3cccnc3)n4[C@H](C)C#N)CC(C)(C)COC(=O)[C@@H]3CCCN(N3)C2=O)C(C)C)C1 [Example A193]"
targetofassay = "KRAS G12D (Homo sapiens (Human), UniProt P01116+P62937, G12D)"
measuredquantity = "IC50"
endpointresult = "> 10 µM"

